molecular target: UniProtKB P03372; assay: Competition with [3H]-17β-estradiol for ERα ligand binding domain; details: E. coli lysate expressing ER ligand binding domains (D, E, & F); 2 nM [3H]-17β-estradiol; 5-15 hours at room temperature
RECORDED METRIC: pIC50
Answers are plain numbers, as −log10 of the molar value.

# example entries with known answers
[
  {
    "COMPOUND": "Oc1ccc2c(c1)oc1c3ccc(O)cc3c(Br)cc21 [Example 3]",
    "RECORDED METRIC": "pIC50",
    "RECORDED MEASUREMENT": 7.15
  },
  {
    "COMPOUND": "N#Cc1c(O)ccc2c1oc1c3ccc(O)cc3ccc21 [Example 7]",
    "RECORDED METRIC": "pIC50",
    "RECORDED MEASUREMENT": 7.26
  }
]

Go through the list and state pIC50 for each entry.
1. N#Cc1cc(O)cc2c3c(oc12)-c1ccc(O)cc1OC3 [Example 10]
2. Oc1ccc2c(c1)OCc1c-2oc2c(Br)cc(O)cc12 [Example 11]
3. Oc1ccc2c(c1)OCc1c-2oc2ccc(O)cc12 [Example 9, 6H-BENZO[4,5]FURO[3,2-C]CHROMEN-3,8-DIOL]

6.80
7.38
6.89

====

target: human ERα (Homo sapiens); construct: made in house; host or cells: E. coli (crude lysate); experiment: Competition with [3H]-17β-estradiol for ERα ligand binding domain; conditions: E. coli lysate expressing ER ligand binding domains (D, E, & F); 2 nM [3H]-17β-estradiol; 5-15 hours at room temperature
Sequence (P03372 311-547 limits assumed): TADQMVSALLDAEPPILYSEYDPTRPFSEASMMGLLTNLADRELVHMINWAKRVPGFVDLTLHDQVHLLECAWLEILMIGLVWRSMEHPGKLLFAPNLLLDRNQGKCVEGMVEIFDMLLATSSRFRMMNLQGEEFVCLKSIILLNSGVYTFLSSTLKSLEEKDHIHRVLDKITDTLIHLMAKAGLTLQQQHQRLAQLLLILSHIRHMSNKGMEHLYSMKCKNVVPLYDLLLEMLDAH
RECORDED METRIC: pIC50
Give bare numbers, as −log10 of the molar value.

Identify measured pIC50 associated with 2,9-DIHYDROXY-5,6-DIHYDRO-BENZO[B]NAPHTHO[2,1-D]FURAN-10-BENZONITRILE [Example 12]
5.55

====

Can you tell me melting point for the items I'm about to list?

[
  {
    "STRUCTURE": "N#Cc1c(O)ccc2c1oc1c3cc(O)ccc3ccc21",
    "melting point": "291 to 295 °C"
  },
  {
    "STRUCTURE": "N#Cc1c(O)ccc2c3c(oc12)-c1ccc(O)cc1CC3",
    "melting point": "> 300 °C"
  },
  {
    "STRUCTURE": "N#Cc1c(O)ccc2c1oc1c3ccc(O)cc3ccc21",
    "melting point": "> 300 °C"
  }
]

Identify measured melting point associated with N#Cc1cc(O)cc2c3c(oc12)-c1ccc(O)cc1CC3
355 to 358 °C

====

target: UniProt P03372; test: Competition with [3H]-17β-estradiol for ERα ligand binding domain; details: E. coli lysate expressing ER ligand binding domains (D, E, & F); 2 nM [3H]-17β-estradiol; 5-15 hours at room temperature
RECORDED METRIC: pIC50
Numbers only, as −log10 of the molar value.

# example entries with known answers
[
  {
    "MOLECULE": "N#Cc1cc(O)cc2c3c(oc12)-c1ccc(O)cc1CC3",
    "pIC50": 6.82
  },
  {
    "MOLECULE": "Oc1ccc2c(c1)CCc1c-2oc2cc(O)ccc12",
    "pIC50": 7.74
  },
  {
    "MOLECULE": "Oc1ccc2c(ccc3c4ccc(O)cc4oc23)c1 [Example 2, BENZO[B]NAPHTHO[2,1-D]FURAN-3,9-DIOL]",
    "pIC50": 7.92
  },
  {
    "MOLECULE": "N#Cc1c(O)ccc2c3c(oc12)-c1ccc(O)cc1CC3",
    "pIC50": 7.09
  }
]

Read the next record carefully.
Identify measured pIC50 associated with N#Cc1cc(O)cc2c3c(oc12)-c1ccc(O)cc1CCC3
5.82

====

Can you tell me pIC50 for the items I'm about to list?
target: human ERβ (Homo sapiens, UniProt Q92731); experiment: Competition with [3H]-17β-estradiol for ERβ ligand binding domain; settings: E. coli lysate expressing ER ligand binding domains (D, E, & F); 2 nM [3H]-17β-estradiol; 5-15 hours at room temperature
Sequence (Q92731 264-498 limits assumed): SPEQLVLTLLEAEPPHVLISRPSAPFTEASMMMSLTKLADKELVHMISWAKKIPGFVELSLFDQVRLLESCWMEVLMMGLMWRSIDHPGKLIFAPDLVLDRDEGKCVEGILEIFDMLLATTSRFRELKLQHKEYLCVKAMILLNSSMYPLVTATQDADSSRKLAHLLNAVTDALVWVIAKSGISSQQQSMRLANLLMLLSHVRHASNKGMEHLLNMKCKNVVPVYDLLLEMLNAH
One number for each entry, as −log10 of the molar value.

# example entries with known answers
[
  {
    "COMPOUND": "N#Cc1c(O)ccc2c1oc1c3ccc(O)cc3ccc21 [Example 7]",
    "pIC50": 8.52
  },
  {
    "COMPOUND": "N#Cc1cc(O)cc2c3c(oc12)-c1ccc(O)cc1CC3 [Example 4]",
    "pIC50": 8.92
  },
  {
    "COMPOUND": "Oc1ccc2c(c1)CCc1c-2oc2cc(O)ccc12 [Example 1]",
    "pIC50": 8.52
  },
  {
    "COMPOUND": "N#Cc1c(O)ccc2c3c(oc12)-c1ccc(O)cc1CC3 [Example 6]",
    "pIC50": 8.30
  },
  {
    "COMPOUND": "N#Cc1cc(O)cc2c3c(oc12)-c1ccc(O)cc1CCC3 [Example 5]",
    "pIC50": 7.77
  }
]

Go through the list and state pIC50 for each entry.
1. Oc1ccc2c(c1)oc1c3ccc(O)cc3c(Br)cc21 [Example 3]
2. Oc1ccc2c(c1)OCc1c-2oc2ccc(O)cc12 [Example 9, 6H-BENZO[4,5]FURO[3,2-C]CHROMEN-3,8-DIOL]
3. N#Cc1cc(O)cc2c3c(oc12)-c1ccc(O)cc1OC3 [Example 10]
4. Oc1ccc2c(ccc3c4ccc(O)cc4oc23)c1 [Example 2, BENZO[B]NAPHTHO[2,1-D]FURAN-3,9-DIOL]
5. Oc1ccc2c(c1)OCc1c-2oc2c(Br)cc(O)cc12 [Example 11]

[7.92, 8.40, 8.70, 9.00, 9.00]
